# Test system: SARS-CoV-2
# Assay Method Text: microbe, parasite or virus in culture
# Type: cell-based
# Experimental Parameters: Severe acute respiratory syndrome coronavirus 2; HeLa-ACE2 cells infected with SARS-CoV-2, 24 h, immunofluorescence of infected cells; read-out: EC50, μM (Hela)
Overview of reported EC50 across a group of compounds:

CC(C)C[C@H](NC(=O)C(=O)Nc1ccccc1F)C(=O)N[C@@H](C[C@@H]1CCCNC1=O)C(=O)COC(=O)OC(C)C < 0.05 µM
CC(C)(C)C[C@H](NC(=O)C(=O)NC(C)(C)C)C(=O)N[C@@H](C[C@@H]1CCCNC1=O)C(=O)CO 0.05 to 0.2 µM
Cc1ccccc1NC(=O)C(=O)N[C@@H](CC1CCCCC1)C(=O)N[C@@H](C[C@@H]1CCNC1=O)C(=O)CO 0.2 to 0.5 µM
CC(C)(C)NC(=O)C(=O)N1C[C@@H]2CCC[C@@H]2[C@H]1C(=O)N[C@@H](C[C@@H]1CCNC1=O)C(=O)CO > 1 µM
COc1ccccc1NC(=O)C(=O)N[C@@H](CC(C)C)C(=O)N[C@@H](C[C@@H]1CCNC1=O)C(=O)CO > 1 µM
Cc1ccccc1NC(=O)C(=O)N[C@@H](CC1CC1)C(=O)N[C@@H](C[C@@H]1CCCNC1=O)C(=O)CO < 0.05 µM

Inquiry: API: value(readout= EC50, system= SARS-CoV-2, query= O=C(Nc1ccccc1F)C(=O)N[C@@H](CC1CCCCC1)C(=O)N[C@H](C[C@@H]1CCCNC1=O)C(=O)CO )
Reply text: 0.05 to 0.2 µM

----------
Overview of reported EC50 across a group of compounds:
# Test system: SARS-CoV-2
# Assay Method Text: microbe, parasite or virus in culture
# Format: cell-based
# Experimental Parameters: Severe acute respiratory syndrome coronavirus 2; HeLa-ACE2 cells infected with SARS-CoV-2, 24 h, immunofluorescence of infected cells; read-out: EC50, μM (Hela)

Compound	Assayed System	Assay Result
COc1cccc2[nH]c(C(=O)N[C@@H](CC(C)C)C(=O)N[C@H](C=O)C[C@@H]3CCNC3=O)cc12 [Compound 35]	SARS-CoV-2	> 1 µM
COc1cccc2[nH]c(C(=O)N[C@@H](CC(C)C)C(=O)N[C@@H](C[C@@H]3CCNC3=O)C(=O)CO)cc12 [Compound 1]	SARS-CoV-2	0.2 to 0.5 µM
CC1(C[C@H](NC(=O)C(=O)NC(C)(C)C)C(=O)N[C@@H](C[C@@H]2CCCNC2=O)C(=O)CO)CCC1 [Compound 113]	SARS-CoV-2	0.05 to 0.2 µM
CC(=O)OCC(=O)[C@H](C[C@@H]1CCCNC1=O)NC(=O)[C@H](CC(C)C)NC(=O)C(=O)Nc1ccccc1F [Compound 105]	SARS-CoV-2	0.05 to 0.2 µM
CC(C)C[C@H](NC(=O)C(=O)NC1(C)CC1)C(=O)N[C@@H](C[C@@H]1CCCNC1=O)C(=O)CO [Compound 29]	SARS-CoV-2	> 1 µM

Inquiry: Tell me the measured EC50 of O=C(Nc1ccccc1F)C(=O)N[C@@H](CC1CC1)C(=O)N[C@@H](C[C@@H]1CCCNC1=O)C(=O)CO [Compound 90] , please.
Reply text: < 0.05 µM

Inquiry: What do you have for CC1(C[C@H](NC(=O)C(=O)NC23CC(F)(C2)C3)C(=O)N[C@@H](C[C@@H]2CCCNC2=O)C(=O)CO)CCC1 [Compound 111] ?
Reply text: 0.2 to 0.5 µM
